Let's look at some compounds and their measured IC50.
# system: HCV NS5B polymerase 1a-H77-C316Y (Hepatitis C virus genotype 1a, UniProt P27958, C2736Y)
# Construct: six-histidine tag
# Sequence (P27958 2421-2990 C2736Y): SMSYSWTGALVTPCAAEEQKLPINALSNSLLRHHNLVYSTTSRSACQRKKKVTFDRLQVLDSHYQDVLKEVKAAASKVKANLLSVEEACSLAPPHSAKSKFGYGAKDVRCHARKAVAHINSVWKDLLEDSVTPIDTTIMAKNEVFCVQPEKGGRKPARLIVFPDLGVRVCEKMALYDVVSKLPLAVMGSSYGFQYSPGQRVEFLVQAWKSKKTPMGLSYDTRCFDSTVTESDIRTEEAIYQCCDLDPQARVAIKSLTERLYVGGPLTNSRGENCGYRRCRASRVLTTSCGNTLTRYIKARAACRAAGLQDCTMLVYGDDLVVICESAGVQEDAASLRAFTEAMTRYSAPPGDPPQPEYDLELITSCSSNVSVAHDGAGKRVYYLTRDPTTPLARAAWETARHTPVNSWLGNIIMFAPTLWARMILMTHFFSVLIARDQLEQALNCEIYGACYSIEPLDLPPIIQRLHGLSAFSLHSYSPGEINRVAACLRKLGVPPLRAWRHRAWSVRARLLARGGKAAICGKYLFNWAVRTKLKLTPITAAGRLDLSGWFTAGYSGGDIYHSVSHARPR
# test.description: biochemical
parameter: IC50 (nM)

CCS(=O)(=O)CCN(c1cc2oc(-c3ccc(F)cc3)c(-c3ncc[nH]3)c2cc1C1CC1)S(C)(=O)=O | 58
CS(=O)(=O)N(Cc1cnc(-c2cccc(CO)c2)s1)c1ccc2c(-c3ncc[nH]3)c(-c3ccccc3)oc2c1 | 28
CS(=O)(=O)N(CC1CCNC1)c1cc2oc(-c3ccc(F)cc3)c(-c3ncc[nH]3)c2cc1C1CC1 (centres unmarked) | 2050
CS(=O)(=O)N(CCCC#N)c1cc2oc(-c3ccc(F)cc3)c(C3=NOCCN3)c2cc1C1CC1 | 50
CS(=O)(=O)N(CCCc1noc(=O)[nH]1)c1cc2oc(-c3ccc(F)cc3)c(C3=NOCCN3)c2cc1C1CC1 | 26
CS(=O)(=O)N(Cc1cnc(-c2ccc3[nH]ccc3c2)s1)c1ccc2c(-c3ncc[nH]3)c(-c3ccccc3)oc2c1 | 27
CS(=O)(=O)Nc1cc2oc(-c3ccc(F)cc3)c(-c3ncc[nH]3)c2cc1C1CC1 | 1800
CC(O)CCCN(c1cc2oc(-c3ccc(F)cc3)c(-c3ncc[nH]3)c2cc1C1CC1)S(C)(=O)=O (centres unmarked) | 53
CS(=O)(=O)N(CCCc1nsc(=O)[nH]1)c1cc2oc(-c3ccc(F)cc3)c(-c3ncc[nH]3)c2cc1C1CC1 | 828
CS(=O)(=O)CCN(c1cc2oc(-c3ccc(F)cc3)c(-c3ncc[nH]3)c2cc1C1CC1)S(C)(=O)=O | 156
Cn1ccc2cc(-c3ncc(CN(c4ccc5c(-c6ncc[nH]6)c(-c6ccccc6)oc5c4)S(C)(=O)=O)s3)ccc21 | 43
CS(=O)(=O)N(CCC(O)CO)c1cc2oc(-c3ccc(F)cc3)c(-c3ncc[nH]3)c2cc1C1CC1 (centres unmarked) | 125
CC1NC(c2c(-c3ccc(F)cc3)oc3cc(N(CC[S+](C)[O-])S(C)(=O)=O)c(C4CC4)cc23)=NO1 (centres unmarked) | 115
Cc1c[nH]c(-c2c(-c3ccc(F)cc3)oc3cc(N(CCO)S(C)(=O)=O)c(C4CC4)cc23)n1 | 461

----------
Let's look at some molecules and their measured pIC50.
# system: HCV NS5B polymerase 1b BK strain (Hepatitis C virus genotype 1b, UniProt P26663)
# Construct: six-histidine tag; made in house; host or cells: E. coli
# Sequence (P26663 2420-2989): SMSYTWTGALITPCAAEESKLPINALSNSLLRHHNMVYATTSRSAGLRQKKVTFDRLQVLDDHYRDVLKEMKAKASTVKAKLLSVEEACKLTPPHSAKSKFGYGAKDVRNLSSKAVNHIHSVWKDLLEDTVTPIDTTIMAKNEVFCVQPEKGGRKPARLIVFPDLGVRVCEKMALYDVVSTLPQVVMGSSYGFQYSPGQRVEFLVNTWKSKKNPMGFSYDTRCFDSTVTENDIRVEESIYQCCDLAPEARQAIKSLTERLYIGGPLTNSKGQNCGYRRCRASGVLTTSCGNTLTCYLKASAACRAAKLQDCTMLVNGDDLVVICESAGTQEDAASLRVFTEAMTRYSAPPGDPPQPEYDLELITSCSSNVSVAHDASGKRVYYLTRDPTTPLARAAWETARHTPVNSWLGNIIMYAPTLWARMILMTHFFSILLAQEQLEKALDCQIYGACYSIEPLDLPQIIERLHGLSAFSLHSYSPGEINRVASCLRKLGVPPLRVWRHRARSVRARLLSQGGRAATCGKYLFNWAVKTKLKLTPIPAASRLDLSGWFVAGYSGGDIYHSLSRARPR
# test.description: HCV NS5B polymerase enzymatic inhibition assay, strain 1b BK
# Assay type: biochemical
# condition.details: enzyme, strain 1b BK; read-out: HCV Polymerase Strain 1b BK IC50
pIC50: −log10 of the molar value.
parameter: pIC50

CS(=O)(=O)CCCCN(c1cc2oc(-c3ccc(Nc4ccccc4)cc3)c(-c3ncc[nH]3)c2cc1C1CC1)S(C)(=O)=O | 7.41
Cc1nc(-c2c(-c3ccc(F)cc3)oc3cc(NS(C)(=O)=O)c(C4CC4)cc23)[nH]c1C | 4.74
CC1NC(c2c(-c3ccc(F)cc3)oc3cc(N(CCCCO)S(C)(=O)=O)c(C4CC4)cc23)=NO1 (centres unmarked) | 7.70
Cc1c[nH]c(-c2c(-c3ccc(F)cc3)oc3cc(N(CCCCO)S(C)(=O)=O)c(C4CC4)cc23)n1 | 6.77
CS(=O)(=O)N(CCN1CCOCC1)c1cc2oc(-c3ccc(F)cc3)c(-c3ncc[nH]3)c2cc1C1CC1 | 7.54
CC(O)CN(c1cc2oc(-c3ccc(F)cc3)c(-c3ncc[nH]3)c2cc1C1CC1)S(C)(=O)=O (centres unmarked) | 6.62
CS(=O)(=O)N(CCCS(=O)(=O)N1CCOCC1)c1cc2oc(-c3ccc(F)cc3)c(-c3ncc[nH]3)c2cc1C1CC1 | 7.70
CC(C)(O)C(O)CCN(c1cc2oc(-c3ccc(F)cc3)c(C3=NOCN3)c2cc1C1CC1)S(C)(=O)=O (centres unmarked) | 7.60
Cn1cnc2ccc(-c3ncc(CN(c4ccc5c(-c6ncc[nH]6)c(-c6ccccc6)oc5c4)S(C)(=O)=O)s3)cc21 | 7.92
CS(=O)(=O)N(CCc1ccccc1)c1cc2oc(-c3ccc(F)cc3)c(-c3ncc[nH]3)c2cc1C1CC1 | 8.15
CCCc1nc(-c2c(-c3ccc(F)cc3)oc3cc(N(CCC(C)C)S(C)(=O)=O)c(C4CC4)cc23)no1 | 3.70
CC(c1ccccc1)N(c1ccc2c(-c3ncc[nH]3)c(-c3ccccc3)oc2c1)S(C)(=O)=O (centres unmarked) | 7.28
CS(=O)(=O)N(CCCN1CCOCC1)c1cc2oc(-c3ccc(F)cc3)c(C3=NOCCN3)c2cc1C1CC1 | 6.95
CS(=O)(=O)N(CCCCC(N)=O)c1cc2oc(-c3ccc(F)cc3)c(-c3ncc[nH]3)c2cc1C1CC1 | 7.59
CS(=O)(=O)N(CCCn1cccc1)c1cc2oc(-c3ccc(F)cc3)c(C3=NOCCN3)c2cc1C1CC1 | 7.42
CS(=O)(=O)N(CCCCC(F)=C(F)F)c1cc2oc(-c3ccc(F)cc3)c(C3=NOCCN3)c2cc1C1CC1 | 7.33
COc1ccc(CN(c2cc3oc(-c4ccc(F)cc4)c(C4=NOC(C)N4)c3cc2C2CC2)S(C)(=O)=O)cc1 (centres unmarked) | 7.32
CS(=O)(=O)N(CCO)c1cc2oc(-c3ccc(F)cc3)c(-c3ncc[nH]3)c2cc1C1CC1 | 7.21
CCCCCCN(c1cc2oc(-c3ccc(F)cc3)c(-c3ncc[nH]3)c2cc1C1CC1)S(C)(=O)=O | 7.55
CS(=O)(=O)N(Cc1sc(Br)nc1C(F)(F)F)c1ccc2c(-c3ncc[nH]3)c(-c3ccccc3)oc2c1 | 7.26
COC(=O)CCCN(c1cc2oc(-c3ccc(F)cc3)c(-c3ncc[nH]3)c2cc1C1CC1)S(C)(=O)=O | 7.70
CC(C)CCN(c1cn2nc(-c3ccc(F)cc3)c(-c3ncc[nH]3)c2cc1C1CC1)S(C)(=O)=O | 6.36
CC(C)CCN(c1cc2oc(-c3ccc(F)cc3)c(C3=NOCC(=O)N3)c2cc1C1CC1)S(C)(=O)=O | 6.15
CS(=O)(=O)Nc1cc2oc(-c3ccc(F)cc3)c(-c3nc(Cl)c(Cl)[nH]3)c2cc1C1CC1 | 6.26
Cn1cc(-c2ncc(CN(c3ccc4c(-c5ncc[nH]5)c(-c5ccccc5)oc4c3)S(C)(=O)=O)s2)cn1 | 8.00
COc1ccc(CN(c2cc3oc(-c4ccc(F)cc4)c(-c4nc(Cl)c[nH]4)c3cc2C2CC2)S(C)(=O)=O)cc1 | 6.36
[2H]C([2H])(CCCCC)N(c1cc2oc(-c3ccc(F)cc3)c(-c3ncc[nH]3)c2cc1C1CC1)S(C)(=O)=O | 7.80
CCN(c1cc2oc(-c3ccc(F)cc3)c(-c3ncc[nH]3)c2cc1C1CC1)S(C)(=O)=O | 7.77
CS(=O)(=O)N(CCO)c1cc2oc(-c3ccc(F)cc3)c(C3=NOCCN3)c2cc1C1CC1 | 6.70

----------
# system: HCV NS5B polymerase 1a-H77 (Hepatitis C virus genotype 1a, UniProt P27958)
# Construct: six-histidine tag; made in house; host or cells: E. coli
# Sequence (P27958 2421-2990): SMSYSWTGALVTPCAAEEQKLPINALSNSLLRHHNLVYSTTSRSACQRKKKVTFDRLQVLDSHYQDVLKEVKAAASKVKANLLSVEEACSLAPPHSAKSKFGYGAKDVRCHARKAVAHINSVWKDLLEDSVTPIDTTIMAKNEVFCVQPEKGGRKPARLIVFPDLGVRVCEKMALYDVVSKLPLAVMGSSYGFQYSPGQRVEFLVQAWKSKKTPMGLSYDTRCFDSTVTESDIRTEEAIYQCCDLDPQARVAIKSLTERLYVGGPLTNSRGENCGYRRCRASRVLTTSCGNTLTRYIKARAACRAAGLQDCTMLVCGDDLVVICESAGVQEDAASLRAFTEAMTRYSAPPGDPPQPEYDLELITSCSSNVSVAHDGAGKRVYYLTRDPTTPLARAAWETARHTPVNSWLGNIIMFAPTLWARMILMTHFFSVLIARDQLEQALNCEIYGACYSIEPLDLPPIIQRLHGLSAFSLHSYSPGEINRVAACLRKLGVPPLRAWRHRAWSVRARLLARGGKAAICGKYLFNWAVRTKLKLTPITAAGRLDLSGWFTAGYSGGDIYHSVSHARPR
# test.description: biochemical
# Set-up: species or system HCV genotype 1a
# condition.details: enzyme, strain 1a H77; read-out: HCV Polymerase Strain 1a H77 IC50
pIC50: −log10 of the molar value.
Let's look at some compounds and their measured pIC50.
parameter: pIC50

COc1ccc(CN(c2cc3oc(-c4ccc(F)cc4)c(-c4nc(Cl)c[nH]4)c3cc2C2CC2)S(C)(=O)=O)cc1 | 7.35
CCN(c1cc2oc(-c3ccc(F)cc3)c(-c3ncc[nH]3)c2cc1C1CC1)S(C)(=O)=O | 8.46
CS(=O)(=O)N(CCCc1nsc(=O)[nH]1)c1cc2oc(-c3ccc(F)cc3)c(C3=NOCCN3)c2cc1C1CC1 | 7.77
COc1ccc(CN(c2cc3oc(-c4ccc(F)cc4)c(-c4nc(C)c(C)[nH]4)c3cc2C2CC2)S(C)(=O)=O)cc1 | 5.35
CS(=O)(=O)CCCCN(c1cc2oc(-c3ccc(Nc4ccccc4)cc3)c(-c3ncc[nH]3)c2cc1C1CC1)S(C)(=O)=O | 8.22
COc1ccc(-c2nn3ccc(-c4cc(C(=O)NC5(c6ccccc6)CC5)ccc4C)cc3c2C2=NOCCN2)cc1 | 8.40
CCN(CC)CCCN(c1cc2oc(-c3ccc(F)cc3)c(C3=NOCCN3)c2cc1C1CC1)S(C)(=O)=O | 7.52
CS(=O)(=O)N(CCCc1nnn[nH]1)c1cc2oc(-c3ccc(F)cc3)c(C3=NOCCN3)c2cc1C1CC1 | 8.22
Cc1ncsc1CCN(c1cc2oc(-c3ccc(F)cc3)c(-c3ncc[nH]3)c2cc1C1CC1)S(C)(=O)=O | 8.40
CC(C)N(c1cc2oc(-c3ccc(F)cc3)c(-c3ncc[nH]3)c2cc1C1CC1)S(C)(=O)=O | 8.11
CS(=O)(=O)N(CCO)c1cc2oc(-c3ccc(F)cc3)c(-c3ncc[nH]3)c2cc1C1CC1 | 8.23
CS(=O)(=O)N(CCN1CCCC1)c1cc2oc(-c3ccc(F)cc3)c(-c3ncc[nH]3)c2cc1C1CC1 | 7.50
CCS(=O)(=O)CCN(c1cc2oc(-c3ccc(F)cc3)c(C3=NOCCN3)c2cc1C1CC1)S(C)(=O)=O | 8.15
CC(O)CCCN(c1cc2oc(-c3ccc(F)cc3)c(-c3ncc[nH]3)c2cc1C1CC1)S(C)(=O)=O (centres unmarked) | 8.46
